In this section we review reported pKd values for a set of binders.
Molecular target: T1, DLG3_2, Q92796
T1 sequence (Q92796 221-321, limits assumed, looked up): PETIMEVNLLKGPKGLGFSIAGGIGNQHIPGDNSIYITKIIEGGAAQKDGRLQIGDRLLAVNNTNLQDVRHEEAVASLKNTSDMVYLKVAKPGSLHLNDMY
Experiment: holdup assay
Design: key: below the threshold = too weak to quantify, mostly under pKd 3.1 to 4
Settings: plain residues with an end cap or a label only (N-terminal biotin on a linker: ado-ado)
Answer with the value's number alone.

BINDER	pKd
GIKKITSTAL [RPS6KA3, P51812]	3.73

For reference, reported pKd for RDPPAEWTRV [PTPN18, Q99952] stands at 4.2
